# System: OVCAR-8
# Test details: NCI tumour cell line growth inhibition, 48 h
Activity calls are given as the source filed them. Rule as the data show it: active = GI50 up to about 1.1 µM and inactive = higher.
Outcomes you can answer with include only these: active, inactive

Per the assay record, what outcome was assigned to O=C(O)CSc1nnc(COc2ccccc2)n1-c1ccccc1 ?
inactive

Next: CCOC(=O)CCC(NC(=O)c1ccc(/N=C/c2nc3cc(C(F)(F)F)ccc3nc2-c2ccccc2)cc1)C(=O)OCC (centres undefined)
inactive

Next: COC(=O)/C(=N\NC(N)=O)C(C(=O)C(=O)Nc1ccccc1OC)c1nc2ccc([N+](=O)[O-])cc2nc1O (centres undefined)
inactive

Next: CC(=O)NCc1nc(C#N)c(N)o1
inactive

Next: C=C1C(=O)O[C@@H]2C[C@@H](C)[C@@H]3C=CC(=O)[C@@]3(C)[C@@H](OC(=O)CC(=O)O[C@H]3[C@@H]4C(=C)C(=O)O[C@@H]4C[C@@H](C)[C@@H]4C=CC(=O)[C@]43C)[C@H]12
active

Next: CCOC(=O)c1cn(C)c(=S)n2c1nc1ccccc12
inactive

Next: O=C(Nc1ccccc1)c1cc(S(=O)(=O)n2ccnc2O)c(S)cc1Cl
inactive

Next: O=C1C=C(NCCc2ccc(O)cc2)C(=O)C=C1NCCc1ccc(O)cc1
inactive

Next: Clc1ccc(-c2nn3c(CCCCCCCCc4nnc5sc(-c6ccc(Cl)cc6)nn45)nnc3s2)cc1
inactive

----------
# Tested on: Malme-3M
# Test details: NCI tumour cell line growth inhibition, 48 h
Active and inactive are the calls of the source. Rule as the data show it: active = GI50 up to about 1.1 µM and inactive = higher.
Recorded GI50, one value per entry.

Molecule	GI50
CC1CC[C@]2(C(=O)O)CCC3(COC(=O)/C=C\c4ccc(O)cc4)C(=CCC4[C@@]5(C)CC[C@H](O)C(C)(C)C5CC[C@]43C)[C@@H]2[C@H]1C (some centres undefined)	34.8 µM (inactive)
CC1CC[C@@]23CCC4(C)[C@@](C=CC5[C@@]6(C)CCC(=O)C(C)(C)C6CC[C@]54C)(OC2=O)[C@@H]3[C@H]1C (some centres undefined)	20.9 µM (inactive)
CN1Cc2c(nc(-c3ccc(Br)cc3)c[n+]2[O-])N(C)C1	> 100 µM (inactive)

Here is another molecule to look at.
Enter reported GI50 observed with Malme-3M for CN1CSC(=S)N(c2cccc(C(F)(F)F)c2)C1
18.7 µM (inactive)

----------
# Tested on: CAKI-1
# Test details: NCI tumour cell line growth inhibition, 48 h
The source made the active and inactive calls. Cut-off read from the data, not from the text of the source: active = GI50 up to about 1.1 µM and inactive = higher.
Experimental readout: GI50

                                   compound        readout_value
0  CCOC(=O)c1[nH]cc(C)c1-c1ccn(-c2ccccc2)c1  > 100 µM (inactive)
1  CCOc1ccccc1NC(=O)C(=O)CC(=O)c1c(C)[n+]([O-])c2ccccc2[n+]1[O-]  > 100 µM (inactive)

Enter reported GI50 observed with CAKI-1 for O=C1CC(=O)c2c(Cl)sc(Cl)c21
> 100 µM (inactive)

----------
# Test system: SNB-75
# Test details: NCI tumour cell line growth inhibition, 48 h
Structures can show the parent of a compound that is named as a salt. Calls of active or inactive are those of the source. Cut-off read from the data, not from the text of the source: active = GI50 up to about 1.1 µM and inactive = higher.
Recorded GI50, one value per entry.

Completed entries (count: 5):
In [3]: df
Out[3]:
                                   molecule        readout_value
0  c1ccc([C@H]2CN3CCSC3=N2)cc1 [LEVAMISOLE HYDROCHLORIDE]  > 100 µM (inactive)
1                     CC(C)C/N=C(\N)N=C(N)N  > 100 µM (inactive)
2  COc1cc2c(oc(=O)c3cc4ccoc4c(OC)c32)c2cccc(O)c12   60.3 µM (inactive)
3  COc1ccc(/C=c2/sc3n(c2=O)NC2(CCCCC2)NN=3)cc1   92.7 µM (inactive)
4  O=[N+]([O-])c1nc(-c2ccccn2)[nH]c1[N+](=O)[O-]     64 µM (inactive)

Here is another molecule to look at.
Enter reported GI50 observed with SNB-75 for CC1=C(SCc2ccccc2)C(=O)c2ccccc2C1=O
13.4 µM (inactive)

----------
# System: HL-60
# Test details: NCI tumour cell line growth inhibition, 48 h
The source made the active and inactive calls. Cut-off read from the data, not from the text of the source: active = GI50 up to about 1.1 µM and inactive = higher.
Outcomes you can answer with include only these: YES for active, NO for inactive

Worked examples follow.
In [3]: df
Out[3]:
                                   compound  system_tested  category_label
0  CN1C(=O)C(O)CC1c1cccc(F)c1 (stereo not given)          HL-60              NO
1  CC1Oc2cc3c(-c4c(O)cc(O)c5c(O)c6c(cc45)OC(C)C(C)C6=O)c(O)cc(O)c3c(O)c2C(=O)C1C (stereo not given)          HL-60             YES

Per the assay record, what outcome was assigned to COC(=O)N1CC[C@@H]2CCC=C(c3cccc4c3OCO4)[C@@H]21 ?
NO

Next: COc1cc(C2c3cc4c(cc3[C@@H](NC3CCN(Cc5ccccc5)CC3)C3COC(=O)[C@H]23)OCO4)cc(OC)c1O (stereo not given in full)
YES

Next: O=[N+]([O-])c1ccc(/C=N\N=c2/ccc([N+](=O)[O-])c[nH]2)cc1
NO

Next: CCOC(=O)CCC(NC(=O)c1ccc(/N=C/c2nc3cc(C(F)(F)F)ccc3nc2-c2ccccc2)cc1)C(=O)OCC (stereo not given)
NO

----------
# System: BT-549
# Test details: NCI tumour cell line growth inhibition, 48 h
Active and inactive are the calls of the source. Cut-off read from the data, not from the text of the source: active = GI50 up to about 1.1 µM and inactive = higher.
Recorded GI50, one value per entry.

Completed entries (count: 3):
>>> print(df.to_string())
                                   compound  experimental_readout        readout_value
0  C1CCNCC1.CN(C)c1ccc(/C=C2/NC(=S)NC2=O)cc1                  GI50   49.4 µM (inactive)
1         OCC(O)C(Cl)CCl (stereo not given)                  GI50  > 100 µM (inactive)
2    COC(=O)c1ccc(/C=C/C2=CC(=O)C=CC2=O)cc1                  GI50   5.81 µM (inactive)

Enter reported GI50 observed with BT-549 for Oc1[nH]c(Nc2ccc(F)c(Cl)c2)nc2ncnc1-2
> 100 µM (inactive)

Next: O=C(O)C1(Cc2ccccc2)Cc2ccccc2C1
> 100 µM (inactive)

Next: C[C@H]1[C@H](C)N1CC(O)Cn1ccnc1[N+](=O)[O-] (stereo not given in full)
> 100 µM (inactive)

Next: CCOC(=O)/C(=C\c1c[nH]c2ccccc12)P(=O)(OCC)OCC
25.4 µM (inactive)

----------
# Tested on: IGROV-1
# Test details: NCI tumour cell line growth inhibition, 48 h
Calls of active or inactive are those of the source. No stated cut-off is given here; in the data, active = GI50 up to about 1.1 µM and inactive = higher.
Experimental readout: GI50

                                 compound        readout_value
0   Cn1nc2c(c1N)Cc1c(nn(C)c1N)-c1ccccc1-2  > 100 µM (inactive)
1  Cc1cccc(C)c1NC(=O)CCC(=O)NNc1nnc(C)n1N  > 100 µM (inactive)

Record request: GI50 value, item CC(C)(C(=O)NN)c1ccccc1
8.79 µM (inactive)

Next: COC(=O)/C(=N\NC(N)=O)C(C(=O)C(=O)Nc1ccccc1OC)c1nc2ccc([N+](=O)[O-])cc2nc1O (configuration not stated)
53.1 µM (inactive)

Next: CN1C(=O)C(O)CC1c1cccc(F)c1 (configuration not stated)
> 100 µM (inactive)

Next: COc1ccc(/C=c2/sc3n(c2=O)NC2(CCCCC2)NN=3)cc1
> 100 µM (inactive)

Next: O=C(O)C(CS)NCc1c2ccccc2nc2ccccc12 (configuration not stated)
27 µM (inactive)

----------
# System: Hs-578T
# Test details: NCI tumour cell line growth inhibition, 48 h
Active and inactive are the calls of the source. Rule as the data show it: active = GI50 up to about 1.1 µM and inactive = higher. Non-standard residues stand in square brackets, D forms with d. Residues, ends and D or L forms follow the SMILES beside them. *: point of attachment. Bn2Val = CC(C)[C@@H](C(=O)*)N(Cc1ccccc1)Cc1ccccc1; NH(4-Cl-benzyl) = Clc1ccc(CN*)cc1; NMeV = CN[C@H](C(=O)O)C(C)C; dNMeA = CN[C@H](C)C(=O)O
Recorded GI50, one value per entry.

Compound	GI50
Oc1ccc(Cl)cc1/C=N/c1cnc2ccccc2c1	> 68.9 µM (inactive)
O=c1c2ccccc2nc(-c2ccc(Cl)cc2)n1O	76 µM (inactive)
Nc1sc2c(c1C(=O)c1ccc(Cl)c(Cl)c1)CCCC2	70.8 µM (inactive)
COc1ccccc1Nc1nc(N)nc(N)c1N	> 100 µM (inactive)
CCN(CC)c1ccc2cc(C(=O)Nc3ccccc3OC)c(=N)oc2c1	22.1 µM (inactive)

Record request: GI50 value, item Cc1cc(Cl)cc2c1NC(=O)C2(O)CC(=O)c1ccco1 (stereo not drawn)
88.9 µM (inactive)

Next: Nc1nc(Cl)c(N)c(NCC2(CO)CCC2)n1
> 100 µM (inactive)

Next: COc1ccc(/C=C2\CCS(=O)(=O)c3ccccc3C2=O)cc1
31.3 µM (inactive)

Next: O=C1CC(n2ccnc2)c2c(Cl)sc(Cl)c21 (stereo not drawn)
30.4 µM (inactive)

Next: COC(=O)/C(=N\NC(N)=O)C(C(=O)C(=O)Nc1ccccc1OC)c1nc2ccc([N+](=O)[O-])cc2nc1O (stereo not drawn)
82.2 µM (inactive)

Next: CO[C@]12CC(=O)C3(C(C[C@H]4CC5CC=C6C[C@@H](OC(C)=O)CC[C@]6(OC(C)=O)C5C[C@@]43C)C1)C1C[C@H]3[C@@H]4CC=C5C[C@@H](OC(C)=O)CC[C@]5(OC(C)=O)[C@H]4CC[C@]3(C)C12 (stereo partly drawn)
32.2 µM (inactive)

Next: Cn1c(=O)c2c(O)cc(N)nc2n(C)c1=O
> 100 µM (inactive)

Next: O=C(c1ccco1)N(Cc1cccnc1)C(=S)N(Cc1cccnc1)C(=O)c1ccco1
23.3 µM (inactive)

Next: C[C@H]1[C@H](C)N1CC(O)Cn1ccnc1[N+](=O)[O-] (stereo partly drawn)
> 100 µM (inactive)

Next: CC(C)[C@H](NC(=O)[C@H](C(C)C)N(Cc1ccccc1)Cc1ccccc1)C(=O)N(C)[C@H](C(=O)N1CCC[C@H]1C(=O)N(C)[C@H](C)C(=O)NCc1ccc(Cl)cc1)C(C)C (Bn2Val-V[NMeV]P[dNMeA]-{NH(4-Cl-benzyl)})
1.05 µM (active)

Next: CCCCOCCOCCOC1=CC(=O)c2c(O)ccc(O)c2C1=O
2.55 µM (inactive)

Next: CCOC(=O)c1nnsc1NC(=O)Nc1ccc(Cl)cc1
30.1 µM (inactive)

Next: Nc1ncnc2c1cnn2Cc1cn(COCC(O)CO)nn1 (stereo not drawn)
14.4 µM (inactive)

Next: Cn1c(=O)n2c(=O)n(C)c(=O)n2c1=O
> 100 µM (inactive)

Next: CC1CCc2sc3nc(S)n(-c4ccccc4)c(=O)c3c2C1 (stereo not drawn)
61.1 µM (inactive)

Next: COC(=O)N1CC[C@@H]2CCC=C(c3cccc4c3OCO4)[C@@H]21
> 100 µM (inactive)

Next: C=C1C(=O)O[C@H]2[C@H]3O[C@@H](C[C@@H]12)[C@@]1(C)CC[C@H](O1)C(C)=CCC[C@H]3C
2.65 µM (inactive)
